# assay_system: Motavizumab (site II specific)
# test_details: ELISA binding of Motavizumab to plate-coated vaccine constructs, one-site model
# Parameters: species or system human
# condition_label: serial dilution of antibody on ELISA plates coated with construct; saturation one-site specific binding model; read-out: Mota kD
Bridge positions count the residues as written; N and C are the ends. Square brackets hold non-standard residues; d marks the D form. I, II: the chains in the order shown. ξ: configuration not given here. ξGly(tetradecyl) = CCCCCCCCCCCCCCC(N)C(=O)O
Below, each of the substances is paired with its reported Kd value.
Use nM as the unit, but write only the number.

Problem: Which Kd is reported with Motavizumab (site II specific) for this entry: I: Ac-LTNSELLSLINDMPITNDQKKLMSNNVQIVRQQS / II: Ac-AKFVAAWTLKAAAKSS[ξGly(tetradecyl)][ξGly(tetradecyl)]-NH2 (amide I:C-II:14) [IILCP5] ?
Result: 16

Problem: Which Kd is reported with Motavizumab (site II specific) for this entry: I: Ac-[ξGly(tetradecyl)][ξGly(tetradecyl)]LTNSELLSLINDMPITNDQKKLMSNNVQIVRQQS / II: Ac-AKFVAAWTLKAAAKSS[ξGly(tetradecyl)][ξGly(tetradecyl)]-NH2 (amide I:C-II:14) [IILCP7] ?
Result: 17

Problem: Which Kd is reported with Motavizumab (site II specific) for this entry: Ac-LTNSELLSLINDMPITNDQKKLMSNNVQIVRQQS-NH2 [IIP5] ?
Result: 23
